Target: c-Abl (Homo sapiens, UniProt P00519)
Construct: The His-tagged kinase domain of c-Abl is cloned and expressed in the baculovirus/Sf9 system; His; made in house; host or cells: baculovirus/Sf9
Sequence (P00519 242-493 limits assumed): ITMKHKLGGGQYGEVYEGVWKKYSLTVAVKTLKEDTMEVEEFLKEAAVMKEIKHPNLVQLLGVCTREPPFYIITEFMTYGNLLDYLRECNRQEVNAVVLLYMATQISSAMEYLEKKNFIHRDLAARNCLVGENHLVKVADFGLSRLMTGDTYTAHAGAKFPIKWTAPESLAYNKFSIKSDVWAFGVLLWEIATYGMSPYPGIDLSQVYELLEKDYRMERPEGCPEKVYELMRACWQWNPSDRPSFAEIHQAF
Test: Test for activity against c-Abl protein tyrosine kinase (filter binding assay)
Assay type: biochemical
// reported inhibition at 10 µM per item
Give the number; % is assumed, so skip it.

Known inhibition at 10 µM results, listed for orientation:
MOLECULE: Cc1ccc(C(=O)NCCN2CCCCC2)cc1Nc1nccc(-c2cccnc2)n1
MEASUREMENT UNIT: %
TEST RESULT: 78

MOLECULE: Cc1ccc(C(=O)NCc2ccco2)cc1Nc1nccc(-c2cccnc2)n1
MEASUREMENT UNIT: %
TEST RESULT: 51

MOLECULE: Cc1ccc(C(=O)NCc2cc(C(C)(C)O)cc(C(F)(F)F)c2)cc1Nc1nccc(-c2cccnc2)n1
MEASUREMENT UNIT: %
TEST RESULT: 99

The reported inhibition at 10 µM of the molecule Cc1ccc(C(=O)NC2CCN(Cc3ccccc3)CC2)cc1Nc1nccc(-c2cccnc2)n1 was 71

The reported inhibition at 10 µM of the molecule Cc1ccc(C(=O)NCCCN(C)c2ccccc2)cc1Nc1nccc(-c2cccnc2)n1 was 74

The reported inhibition at 10 µM of the molecule COc1ccc(CCNC(=O)c2ccc(C)c(Nc3nccc(-c4cccnc4)n3)c2)cc1OC was 60

The reported inhibition at 10 µM of the molecule Cc1ccc(C(=O)NCCCO)cc1Nc1nccc(-c2cccnc2)n1 was 57

The reported inhibition at 10 µM of the molecule Cc1ccc(C(=O)NCC(=O)OC(C)(C)C)cc1Nc1nccc(-c2cccnc2)n1 was 95

The reported inhibition at 10 µM of the molecule Cc1ccc(C(=O)N2CCN(CC(=O)N3CCOCC3)CC2)cc1Nc1nccc(-c2cccnc2)n1 was 13

The reported inhibition at 10 µM of the molecule Cc1ccc(C(=O)NCCN2CCNC2=O)cc1Nc1nccc(-c2cccnc2)n1 was 8

The reported inhibition at 10 µM of the molecule Cc1ccc(C(=O)NCC(N)=O)cc1Nc1nccc(-c2cccnc2)n1 was 55

====

Target: KDR (Homo sapiens, UniProt P35968)
Sequence (P35968 20-1356): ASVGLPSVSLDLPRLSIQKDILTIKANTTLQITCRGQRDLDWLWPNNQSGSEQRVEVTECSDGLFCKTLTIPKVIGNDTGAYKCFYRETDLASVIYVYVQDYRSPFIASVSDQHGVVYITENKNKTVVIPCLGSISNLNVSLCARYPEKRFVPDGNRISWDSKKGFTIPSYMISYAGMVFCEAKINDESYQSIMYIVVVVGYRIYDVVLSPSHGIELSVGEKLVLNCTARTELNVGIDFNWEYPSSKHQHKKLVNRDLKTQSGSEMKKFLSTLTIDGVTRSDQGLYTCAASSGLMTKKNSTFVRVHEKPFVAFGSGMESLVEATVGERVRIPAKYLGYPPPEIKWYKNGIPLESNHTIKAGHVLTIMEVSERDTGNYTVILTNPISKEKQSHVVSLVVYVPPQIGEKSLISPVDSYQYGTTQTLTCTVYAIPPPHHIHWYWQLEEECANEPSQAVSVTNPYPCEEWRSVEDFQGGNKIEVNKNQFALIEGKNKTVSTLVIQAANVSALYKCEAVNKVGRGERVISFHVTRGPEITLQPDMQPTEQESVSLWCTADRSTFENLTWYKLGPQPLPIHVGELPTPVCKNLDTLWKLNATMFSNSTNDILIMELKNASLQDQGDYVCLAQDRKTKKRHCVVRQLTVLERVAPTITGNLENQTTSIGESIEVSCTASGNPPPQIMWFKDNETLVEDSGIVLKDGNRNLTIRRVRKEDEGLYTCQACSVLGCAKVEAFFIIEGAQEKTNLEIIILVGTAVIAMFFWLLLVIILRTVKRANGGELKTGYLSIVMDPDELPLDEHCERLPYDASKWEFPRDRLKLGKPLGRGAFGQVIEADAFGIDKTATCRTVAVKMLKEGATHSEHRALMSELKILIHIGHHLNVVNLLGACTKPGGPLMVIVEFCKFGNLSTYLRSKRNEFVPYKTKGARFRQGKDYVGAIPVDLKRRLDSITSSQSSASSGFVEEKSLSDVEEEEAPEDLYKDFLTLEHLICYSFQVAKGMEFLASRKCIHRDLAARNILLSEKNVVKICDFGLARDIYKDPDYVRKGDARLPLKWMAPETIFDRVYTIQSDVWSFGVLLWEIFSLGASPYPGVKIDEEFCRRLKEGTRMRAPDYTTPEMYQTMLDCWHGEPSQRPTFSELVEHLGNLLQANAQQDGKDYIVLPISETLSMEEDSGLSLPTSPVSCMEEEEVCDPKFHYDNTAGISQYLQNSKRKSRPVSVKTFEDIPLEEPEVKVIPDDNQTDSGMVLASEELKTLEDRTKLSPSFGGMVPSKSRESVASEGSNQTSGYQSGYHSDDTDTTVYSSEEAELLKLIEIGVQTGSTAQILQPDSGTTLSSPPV
Experiment: Enzymatic KDR in vitro inhibition
Type: biochemical
REPORTED PROPERTY: inhibition at 10 µM (%)
Give the number; % is assumed, so skip it.

Known inhibition at 10 µM results, listed for orientation:
RECORD SMILES: Cc1ccc(C(=O)Nc2cccc(C(=O)c3ccccc3)c2)cc1Nc1nccc(-c2cccnc2)n1
inhibition at 10 µM [%]: 36
//
RECORD SMILES: Cc1ccc(C(=O)NC2CCN(Cc3ccccc3)CC2)cc1Nc1nccc(-c2cccnc2)n1
inhibition at 10 µM [%]: 60
//
RECORD SMILES: COc1ccc(CNC(=O)c2ccc(C)c(Nc3nccc(-c4cccnc4)n3)c2)cc1
inhibition at 10 µM [%]: 81

The reported inhibition at 10 µM of the compound CCOCCNC(=O)c1ccc(C)c(Nc2nccc(-c3cccnc3)n2)c1 was 44

The reported inhibition at 10 µM of the compound Cc1ccc(C(=O)N2CCN(C3CCCC3)CC2)cc1Nc1nccc(-c2cccnc2)n1 was 78

The reported inhibition at 10 µM of the compound CCN(CC)C(=O)c1ccc(C)c(Nc2nccc(-c3cccnc3)n2)c1 was 83

The reported inhibition at 10 µM of the compound CCOC(=O)Cc1ccc(NC(=O)c2ccc(C)c(Nc3nccc(-c4cccnc4)n3)c2)cc1 was 44

The reported inhibition at 10 µM of the compound COc1ccc(N2CCN(C(=O)c3ccc(C)c(Nc4nccc(-c5cccnc5)n4)c3)CC2)cc1 was 77

====

Target: KDR (Homo sapiens, UniProt P35968)
Experiment: Enzymatic KDR in vitro inhibition
Assay type: biochemical
REPORTED PROPERTY: inhibition at 10 µM

Known inhibition at 10 µM results, listed for orientation:
RECORD SMILES: Cc1ccc(C(=O)NCc2ccco2)cc1Nc1nccc(-c2cccnc2)n1
inhibition at 10 µM: 57%

RECORD SMILES: Cc1ccc(C(=O)NCc2ccc(S(C)(=O)=O)cc2)cc1Nc1nccc(-c2cccnc2)n1
inhibition at 10 µM: 70%

RECORD SMILES: Cc1ccc(C(=O)Nc2cccc(Cl)c2)cc1Nc1nccc(-c2cccnc2)n1
inhibition at 10 µM: 50%

Proceed to the following item.
Entry Cc1ccc(C(=O)N2CCN(c3ccncc3)CC2)cc1Nc1nccc(-c2cccnc2)n1 , tested on KDR (Homo sapiens, UniProt P35968), has a reported inhibition at 10 µM of 82%

====

// reported inhibition at 10 µM per item
Target: KDR (Homo sapiens, UniProt P35968)
Assay: Enzymatic KDR in vitro inhibition
Format: biochemical
Give the number; % is assumed, so skip it.

Known inhibition at 10 µM results, listed for orientation:
COMPOUND: Cc1ccc(C(=O)NCCc2cccn2C)cc1Nc1nccc(-c2cccnc2)n1
STUDY TARGET: KDR (Homo sapiens, UniProt P35968)
MEASUREMENT UNIT: %
inhibition at 10 µM: 45
--
COMPOUND: Cc1ccc(C(=O)NCCCO)cc1Nc1nccc(-c2cccnc2)n1
STUDY TARGET: KDR (Homo sapiens, UniProt P35968)
MEASUREMENT UNIT: %
inhibition at 10 µM: 37
--
COMPOUND: Cc1ccc(C(=O)NCC(C)C)cc1Nc1nccc(-c2cccnc2)n1
STUDY TARGET: KDR (Homo sapiens, UniProt P35968)
MEASUREMENT UNIT: %
inhibition at 10 µM: 39
--
COMPOUND: COCCN(CCOC)C(=O)c1ccc(C)c(Nc2nccc(-c3cccnc3)n2)c1
STUDY TARGET: KDR (Homo sapiens, UniProt P35968)
MEASUREMENT UNIT: %
inhibition at 10 µM: 61
--
COMPOUND: Cc1ccc(C(=O)NCC2CC2)cc1Nc1nccc(-c2cccnc2)n1
STUDY TARGET: KDR (Homo sapiens, UniProt P35968)
MEASUREMENT UNIT: %
inhibition at 10 µM: 62

The reported inhibition at 10 µM of the compound CCOC(=O)C(NC(=O)c1ccc(C)c(Nc2nccc(-c3cccnc3)n2)c1)C(=O)OCC was 60

The reported inhibition at 10 µM of the compound CCOC(=O)CN(Cc1ccccc1)C(=O)c1ccc(C)c(Nc2nccc(-c3cccnc3)n2)c1 was 74

The reported inhibition at 10 µM of the compound CCOC(=O)N1CCN(C(=O)c2ccc(C)c(Nc3nccc(-c4cccnc4)n3)c2)CC1 was 63

The reported inhibition at 10 µM of the compound Cc1ccc(C(=O)NCC2CCCO2)cc1Nc1nccc(-c2cccnc2)n1 (centres unmarked) was 41

The reported inhibition at 10 µM of the compound Cc1ccc(C(=O)NCc2ccncc2)cc1Nc1nccc(-c2cccnc2)n1 was 56

The reported inhibition at 10 µM of the compound Cc1ccc(C(=O)N[C@H](C)C(=O)OC(C)(C)C)cc1Nc1nccc(-c2cccnc2)n1 was 51

The reported inhibition at 10 µM of the compound Cc1ccc(C(=O)NCCN(C(C)C)C(C)C)cc1Nc1nccc(-c2cccnc2)n1 was 23

The reported inhibition at 10 µM of the compound COc1ccc(NC(=O)c2ccc(C)c(Nc3nccc(-c4cccnc4)n3)c2)c(C)c1 was 67

The reported inhibition at 10 µM of the compound Cc1ccc(C(=O)Nc2cccc3c2CCCC3)cc1Nc1nccc(-c2cccnc2)n1 was 79

The reported inhibition at 10 µM of the compound Cc1ccc(C(=O)N2CCN(CC(=O)N3CCOCC3)CC2)cc1Nc1nccc(-c2cccnc2)n1 was 52

The reported inhibition at 10 µM of the compound Cc1ccc(C(=O)NCCN2CCCCC2)cc1Nc1nccc(-c2cccnc2)n1 was 37

The reported inhibition at 10 µM of the compound Cc1ccc(C(=O)NCc2ccc(C(F)(F)F)cc2)cc1Nc1nccc(-c2cccnc2)n1 was 74

====

Target: c-Abl (Homo sapiens)
Construct: The His-tagged kinase domain of c-Abl is cloned and expressed in the baculovirus/Sf9 system; His; made in house; host or cells: baculovirus/Sf9
Assay: Test for activity against c-Abl protein tyrosine kinase (filter binding assay)
Type: biochemical
REPORTED PROPERTY: inhibition at 10 µM (%)
Give the number; % is assumed, so skip it.

COMPOUND: Cc1ccc(C(=O)N(C)Cc2ccccc2)cc1Nc1nccc(-c2cccnc2)n1 [Example 21]
STUDY TARGET: c-Abl (Homo sapiens)
MEASUREMENT UNIT: %
TEST RESULT: 30
--
COMPOUND: Cc1ccc(C(=O)NCCc2cnc(O)nc2O)cc1Nc1nccc(-c2cccnc2)n1 [Example 12]
STUDY TARGET: c-Abl (Homo sapiens)
MEASUREMENT UNIT: %
TEST RESULT: 22
--
COMPOUND: CCN(CC)c1cccc(NC(=O)c2ccc(C)c(Nc3nccc(-c4cccnc4)n3)c2)c1 [Example 67]
STUDY TARGET: c-Abl (Homo sapiens)
MEASUREMENT UNIT: %
TEST RESULT: 98
--
COMPOUND: Cc1ccc(C(=O)N2CCOCC2)cc1Nc1nccc(-c2cccnc2)n1 [Example 35]
STUDY TARGET: c-Abl (Homo sapiens)
MEASUREMENT UNIT: %
TEST RESULT: 27
--
COMPOUND: Cc1ccc(C(=O)NCc2ccc(C(F)(F)F)cc2)cc1Nc1nccc(-c2cccnc2)n1 [Example 54]
STUDY TARGET: c-Abl (Homo sapiens)
MEASUREMENT UNIT: %
TEST RESULT: 69

The reported inhibition at 10 µM of the compound COCCN(CCOC)C(=O)c1ccc(C)c(Nc2nccc(-c3cccnc3)n2)c1 [Example 45] was 34

The reported inhibition at 10 µM of the compound Cc1ccc(C(=O)N2CCC(NC(=O)c3ccccc3)CC2)cc1Nc1nccc(-c2cccnc2)n1 [Example 34] was 73

The reported inhibition at 10 µM of the compound Cc1ccc(C(=O)NCC(C)C)cc1Nc1nccc(-c2cccnc2)n1 [Example 9] was 44

The reported inhibition at 10 µM of the compound Cc1ccc(C(=O)NCCc2cccn2C)cc1Nc1nccc(-c2cccnc2)n1 [Example 7] was 72

The reported inhibition at 10 µM of the compound Cc1ccc(C(=O)Nc2cccc3c2CCCC3)cc1Nc1nccc(-c2cccnc2)n1 [Example 53] was 88

The reported inhibition at 10 µM of the compound Cc1ccc(C(=O)N2CCN(c3cnccn3)CC2)cc1Nc1nccc(-c2cccnc2)n1 [Example 38] was 74
